Tested on: HL-60(TB)
Experiment: NCI-60 anticancer screening (SRB)
Assay type: cell-based
Settings: Homo sapiens, leukemia, one dose 10 μM, read-out: Growth Inhibition Percentage (GI %)
inhibition at 10 µM by entry:

Form field: reported inhibition at 10 µM of CCOC(=O)C1=C(N)N(c2ccc(Cl)cc2)C2=C(C(=O)CC(C)(C)C2)C1c1cccnc1 (racemic) [12f]
< 10%

Proceed to CCOC(=O)C1=C(N)N(c2ccc(Cl)cc2)C2=C(C(=O)CC(C)(C)C2)C1c1ccccc1OC (racemic) [6i]
69%

Proceed to CCOC(=O)C1=C(N)N(c2ccc(Cl)cc2)C2=C(C(=O)CC(C)(C)C2)C1c1ccccc1Br (racemic) [6f]
68%

Proceed to CCOC(=O)C1=C(N)N(c2ccccc2)C2=C(C(=O)CC(C)(C)C2)C1c1ccc(F)cc1 (racemic) [8a]
< 10%

Proceed to CCOC(=O)C1=C(N)N(c2ccc(C)cc2)C2=C(C(=O)CC(C)(C)C2)C1c1cccnc1 (racemic) [12e]
< 10%

Proceed to CCOC(=O)C1=C(N)N(c2ccc(C)cc2)C2=C(C(=O)CC(C)(C)C2)C1c1ccc([N+](=O)[O-])cc1 (racemic) [8j]
< 10%

***
Form field: reported inhibition at 10 µM of CCOC(=O)C1=C(N)N(c2ccc(C)cc2)C2=C(C(=O)CC(C)(C)C2)C1c1ccc(OC)cc1 (racemic) [8g]
< 10%
